Type: in vivo, human
Conditions: human, plasma, po, 400 mg, AUCτ, mean (CV%), plasma; AUCτ = AUC24; soticlestat 400 mg QD oral solution, day 1
Quantity name: AUC (ng·h/mL)
Answer in ng·h/mL, number only, no unit symbol.

Recorded AUC (compound "O=C(c1cccnc1-c1ccncc1)N1CCC(O)(Cc2ccccc2)CC1" ): 2500

====

Type: in vivo, human
Settings: human, plasma, po, 300 mg, AUCτ, mean (CV%), plasma; AUCτ = AUC24; soticlestat 300 mg QD oral solution, day 1
Quantity name: AUC (ng·h/mL)
Answer in ng·h/mL, number only, no unit symbol.

Recorded AUC (compound "O=C(c1cccnc1-c1ccncc1)N1CCC(O)(Cc2ccccc2)CC1" ): 2030

====

Assay type: in vivo, human
Settings: human, plasma, po, 600 mg, AUCτ, mean (CV%), plasma; AUCτ = AUC24; soticlestat 600 mg QD oral solution, day 1
Quantity name: AUC (ng·h/mL)
Answer in ng·h/mL, number only, no unit symbol.

Recorded AUC (compound "O=C(c1cccnc1-c1ccncc1)N1CCC(O)(Cc2ccccc2)CC1" ): 4180

====

Type: in vivo, human
Conditions: human, plasma, oral, mean half‐life, at 300 mg QD and 400 mg QD
Quantity name: half-life

Recorded half-life (molecule "O=C(c1cccnc1-c1ccncc1)N1CCC(O)(Cc2ccccc2)CC1" ): ~4 h

====

Type: in vivo, human
Details: human, plasma, po, 100 mg, AUCτ, mean (CV%), plasma; AUCτ = AUC24; soticlestat 100 mg QD oral solution, day 1
Quantity name: AUC (ng·h/mL)
Answer in ng·h/mL, number only, no unit symbol.

Recorded AUC (compound "O=C(c1cccnc1-c1ccncc1)N1CCC(O)(Cc2ccccc2)CC1" ): 446

====

Assay type: in vivo, human
Settings: human, plasma, po, 300 mg, AUCτ, mean (CV%), plasma; AUCτ = AUC24; soticlestat 300 mg QD oral solution, day 14
Quantity name: AUC (ng·h/mL)
Answer in ng·h/mL, number only, no unit symbol.

Recorded AUC (compound O=C(c1cccnc1-c1ccncc1)N1CCC(O)(Cc2ccccc2)CC1 [Soticlestat, soticlestat] ): 2690
